Below, each entry is listed with its recorded Relative inhibition against the expression of collagenase.
Tested on: AP-1 (comprising c-Jun protein)
procedureSummary: Inhibition of activity of AP-1 protein (Coll-CAT collagenase promoter reporter in HaCaT cells)
Format: cell-based
conditionDescription: Condition of expression: — (no c-Jun or RAR α vector); HaCaT, Coll-CAT; untreated = 1.0
# answer = number (no unit)

{"columns": ["compound", "result"],
 "data": [
  ["CC(=O)Oc1ccccc1C(=O)OC/C=C(C)/C=C/C=C(C)/C=C/C1=C(C)CCCC1(C)C [Retinyl acetyl salicylate]", 1.0],
  ["CC1=C(/C=C/C(C)=C/C=C/C(C)=C/C(=O)O)C(C)(C)CCC1 [Retinoic acid]", 0.6],
  ["CC1=C(/C=C/C(C)=C/C=C/C(C)=C/COC(=O)/C=C(C)/C=C/C=C(C)/C=C/C2=C(C)CCCC2(C)C)C(C)(C)CCC1 [Compound of formula (1), Retinyl retinoate]", 0.7],
  ["CC1=C(/C=C/C(C)=C/C=C/C(C)=C/COC(=O)c2ccccc2O)C(C)(C)CCC1 [Retinyl salicylate]", 1.0]
]}

// switching to the query compound
query: // fetch Relative inhibition against the expression of collagenase for CC1=C(/C=C/C(C)=C/C=C/C(C)=C/CO)C(C)(C)CCC1 [Retinol] ; system: AP-1 (comprising c-Jun protein)
result: 0.8

---

testSystem: RAR β (Homo sapiens, UniProt P10826)
Construct: expressed in transfected cells; host or cells: HaCaT
Sequence (P10826 whole entry, species assumed): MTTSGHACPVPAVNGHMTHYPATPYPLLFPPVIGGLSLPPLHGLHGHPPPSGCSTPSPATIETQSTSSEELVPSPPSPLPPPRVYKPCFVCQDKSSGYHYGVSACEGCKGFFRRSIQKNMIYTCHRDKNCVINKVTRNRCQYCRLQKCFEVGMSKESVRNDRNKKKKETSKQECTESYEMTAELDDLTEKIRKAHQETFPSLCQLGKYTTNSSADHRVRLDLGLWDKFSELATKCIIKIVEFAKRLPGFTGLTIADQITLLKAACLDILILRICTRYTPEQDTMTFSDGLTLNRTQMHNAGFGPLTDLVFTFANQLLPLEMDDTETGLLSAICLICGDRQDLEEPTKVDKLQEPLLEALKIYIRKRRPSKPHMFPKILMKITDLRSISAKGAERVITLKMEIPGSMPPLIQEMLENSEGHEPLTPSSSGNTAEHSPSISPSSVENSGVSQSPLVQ
procedureSummary: Activity for RAR β (CAT reporter in HaCaT cells)
Format: cell-based
conditionDescription: 1 μM, CAT ELISA, Control = 1.0
Below, each entry is listed with its recorded Relative activity against RAR β.
# answer = number (no unit)

Past entries and their recorded results:
{"columns": ["compound", "testSystem", "Relative activity against RAR β"],
 "data": [
  ["CC1=C(/C=C/C(C)=C/C=C/C(C)=C/C(=O)O)C(C)(C)CCC1 [Retinoic acid]", "RAR β (Homo sapiens, UniProt P10826)", 4.0],
  ["CC1=C(/C=C/C(C)=C/C=C/C(C)=C/CO)C(C)(C)CCC1 [Retinol]", "RAR β (Homo sapiens, UniProt P10826)", 1.3],
  ["CC1=C(/C=C/C(C)=C/C=C/C(C)=C/COC(=O)/C=C(C)/C=C/C=C(C)/C=C/C2=C(C)CCCC2(C)C)C(C)(C)CCC1 [Compound of formula (1), Retinyl retinoate]", "RAR β (Homo sapiens, UniProt P10826)", 1.5]
]}

query: // fetch Relative activity against RAR β for CC(=O)Oc1ccccc1C(=O)OC/C=C(C)/C=C/C=C(C)/C=C/C1=C(C)CCCC1(C)C [Retinyl acetyl salicylate] ; system: RAR β (Homo sapiens, UniProt P10826)
result: 1.0

query: // fetch Relative activity against RAR β for CC1=C(/C=C/C(C)=C/C=C/C(C)=C/COC(=O)c2ccccc2O)C(C)(C)CCC1 [Retinyl salicylate] ; system: RAR β (Homo sapiens, UniProt P10826)
result: 1.1

src = patent US7173062B2
